Exercise: state measured log10 of Ki for each of the molecules provided.
# target_of_assay: Muscarinic acetylcholine receptor M2 (Homo sapiens)
# Sequence (P08172 whole entry): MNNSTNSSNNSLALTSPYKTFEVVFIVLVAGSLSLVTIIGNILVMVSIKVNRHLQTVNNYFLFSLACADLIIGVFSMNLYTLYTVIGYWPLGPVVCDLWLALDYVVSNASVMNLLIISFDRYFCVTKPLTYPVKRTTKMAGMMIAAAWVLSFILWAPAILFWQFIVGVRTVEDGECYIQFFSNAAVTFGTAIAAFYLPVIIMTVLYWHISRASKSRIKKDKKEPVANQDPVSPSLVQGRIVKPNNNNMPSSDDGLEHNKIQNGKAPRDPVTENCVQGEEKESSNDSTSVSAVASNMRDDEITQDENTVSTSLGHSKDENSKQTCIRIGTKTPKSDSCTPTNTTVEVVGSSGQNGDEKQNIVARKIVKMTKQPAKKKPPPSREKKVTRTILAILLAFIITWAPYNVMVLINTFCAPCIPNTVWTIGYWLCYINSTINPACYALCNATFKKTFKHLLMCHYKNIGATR
# experiment: Binding affinity against human muscarinic acetylcholine receptor M2 in transfected CHO cells
Could you please treat all values as log10 of Ki in nM?

// worked examples, log10 of Ki included
>>> df
                                test_smiles  reported_endpoint  number
0  O=C(N1CCCNCC1)[C@](O)(c1ccccc1)[C@@H]1CCC(F)(F)C1        log10 of Ki    3.04
1  NCC1CCN(C(=O)[C@](O)(c2ccccc2)C2CCCC2)CC1        log10 of Ki    1.45

Consider the following items and state reported log10 of Ki for each.
1. NCC(=O)N1CCN(C(=O)[C@](O)(c2ccccc2)[C@@H]2CCC(F)(F)C2)CC1
2. CNCCC1CCN(C(=O)[C@](O)(c2ccccc2)[C@@H]2CCC(F)(F)C2)CC1
3. NCC1CCN(C(=O)[C@](O)(c2ccccc2)[C@@H]2CCC(F)(F)C2)CC1

[reply]
[2.48, 3.73, 2.88]
